Recorded values, source paper PMC11666352.

- system.tested: Taq pol E507K-D578E E507K;D578E (UniProt P19821)
- test.name: stopped-flow fluorescence anisotropy
- condition.set: T17 carries SIMA; Kd: 5 mM Tricine-KOH pH 8.0, 100 mM KCl, 3.4 mM MgCl2, 0.1 mM each dNTP, 0.01% Tween 20, 20 nM hairpin, 55 C (SYTO 13 1/5000 listed in the shared buffer)
property.label: Kd (nM)

>>> reading("GCTATGCGTGAGCGCTTTTGCGCTCACGCATAGC [H-Kd hairpin]")
1.07

###

- system.tested: Taq pol E742K-A743R E742K;A743R (UniProt P19821)
- test.name: stopped-flow fluorescence anisotropy
- condition.set: T17 carries SIMA; Kd: 5 mM Tricine-KOH pH 8.0, 100 mM KCl, 3.4 mM MgCl2, 0.1 mM each dNTP, 0.01% Tween 20, 20 nM hairpin, 55 C (SYTO 13 1/5000 listed in the shared buffer)
property.label: Kd (nM)

>>> reading("GCTATGCGTGAGCGCTTTTGCGCTCACGCATAGC [H-Kd hairpin]")
0.51

###

- system.tested: Taq pol D578S-R728Q-M747Q D578S;R728Q;M747Q (UniProt P19821)
- test.name: stopped-flow fluorescence anisotropy
- condition.set: T17 carries SIMA; Kd: 5 mM Tricine-KOH pH 8.0, 100 mM KCl, 3.4 mM MgCl2, 0.1 mM each dNTP, 0.01% Tween 20, 20 nM hairpin, 55 C (SYTO 13 1/5000 listed in the shared buffer)
pKd: −log10 of the molar value.
property.label: pKd

>>> reading("GCTATGCGTGAGCGCTTTTGCGCTCACGCATAGC [H-Kd hairpin]")
7.99

###

- system.tested: Taq pol F667A F667A (UniProt P19821)
- test.name: stopped-flow fluorescence anisotropy
- condition.set: T17 carries SIMA; Kd: 5 mM Tricine-KOH pH 8.0, 100 mM KCl, 3.4 mM MgCl2, 0.1 mM each dNTP, 0.01% Tween 20, 20 nM hairpin, 55 C (SYTO 13 1/5000 listed in the shared buffer)
pKd: −log10 of the molar value.
property.label: pKd

>>> reading("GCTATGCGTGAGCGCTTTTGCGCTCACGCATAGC [H-Kd hairpin]")
7.95

###

- system.tested: Taq pol D578K D578K (UniProt P19821)
- test.name: stopped-flow fluorescence anisotropy
- condition.set: T17 carries SIMA; Kd: 5 mM Tricine-KOH pH 8.0, 100 mM KCl, 3.4 mM MgCl2, 0.1 mM each dNTP, 0.01% Tween 20, 20 nM hairpin, 55 C (SYTO 13 1/5000 listed in the shared buffer)
pKd: −log10 of the molar value.
property.label: pKd

>>> reading("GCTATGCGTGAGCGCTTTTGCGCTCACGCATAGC [H-Kd hairpin]")
8.38

###

- system.tested: Taq pol E507K-A570T-M747Q E507K;A570T;M747Q (UniProt P19821)
- test.name: stopped-flow fluorescence anisotropy
- condition.set: T17 carries SIMA; Kd: 5 mM Tricine-KOH pH 8.0, 100 mM KCl, 3.4 mM MgCl2, 0.1 mM each dNTP, 0.01% Tween 20, 20 nM hairpin, 55 C (SYTO 13 1/5000 listed in the shared buffer)
pKd: −log10 of the molar value.
property.label: pKd

>>> reading("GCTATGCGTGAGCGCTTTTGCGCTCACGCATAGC [H-Kd hairpin]")
8.82

###

- system.tested: Taq pol D578W D578W (UniProt P19821)
- test.name: stopped-flow fluorescence anisotropy
- condition.set: T17 carries SIMA; Kd: 5 mM Tricine-KOH pH 8.0, 100 mM KCl, 3.4 mM MgCl2, 0.1 mM each dNTP, 0.01% Tween 20, 20 nM hairpin, 55 C (SYTO 13 1/5000 listed in the shared buffer)
pKd: −log10 of the molar value.
property.label: pKd

>>> reading("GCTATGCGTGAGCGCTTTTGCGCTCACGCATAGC [H-Kd hairpin]")
8.30

###

- system.tested: Taq pol S515N S515N (UniProt P19821)
- test.name: stopped-flow fluorescence anisotropy
- condition.set: T17 carries SIMA; Kd: 5 mM Tricine-KOH pH 8.0, 100 mM KCl, 3.4 mM MgCl2, 0.1 mM each dNTP, 0.01% Tween 20, 20 nM hairpin, 55 C (SYTO 13 1/5000 listed in the shared buffer)
pKd: −log10 of the molar value.
property.label: pKd

>>> reading("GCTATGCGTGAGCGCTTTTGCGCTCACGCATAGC [H-Kd hairpin]")
8.17

###

- system.tested: Taq pol D732N D732N (UniProt P19821)
- test.name: stopped-flow fluorescence anisotropy
- condition.set: T17 carries SIMA; Kd: 5 mM Tricine-KOH pH 8.0, 100 mM KCl, 3.4 mM MgCl2, 0.1 mM each dNTP, 0.01% Tween 20, 20 nM hairpin, 55 C (SYTO 13 1/5000 listed in the shared buffer)
property.label: Kd (nM)

>>> reading("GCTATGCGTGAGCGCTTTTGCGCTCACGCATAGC [H-Kd hairpin]")
2.6

###

- system.tested: Taq pol I707L I707L (UniProt P19821)
- test.name: stopped-flow fluorescence anisotropy
- condition.set: T17 carries SIMA; Kd: 5 mM Tricine-KOH pH 8.0, 100 mM KCl, 3.4 mM MgCl2, 0.1 mM each dNTP, 0.01% Tween 20, 20 nM hairpin, 55 C (SYTO 13 1/5000 listed in the shared buffer)
pKd: −log10 of the molar value.
property.label: pKd

>>> reading("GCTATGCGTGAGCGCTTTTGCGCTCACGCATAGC [H-Kd hairpin]")
8.07
